biological target: T1, Soluble IGF-1R (sIGF-1R), R&D Systems Cat. # 391-GR/CF (UniProt P08069 31-935, limits assumed); test: phage ELISA
T1 construct: extracellular domain
Value Kind: Ratio over Background

PDLHKGFYAQLAQLIRGQLLS [20E2B-3-E3-IGFR]	16.3
GAPVDQLHEDFYDWFVRQVSQAATG [H2CA-2-B2-IGFR]	3.4
TFYSCLASLLTGTPQPNRGPWERCR [20C-3-G3-IGFR]	32.3

Record summary for VATSQGFYSGLSELLQGGGNV [20E2B-3-E12-IGFR] : reported Ratio over Background = 6
